# system.under.test: JAK2 (Homo sapiens, UniProt O60674)
# Construct: host or cells: baculovirus expression system
# Sequence (O60674 whole entry): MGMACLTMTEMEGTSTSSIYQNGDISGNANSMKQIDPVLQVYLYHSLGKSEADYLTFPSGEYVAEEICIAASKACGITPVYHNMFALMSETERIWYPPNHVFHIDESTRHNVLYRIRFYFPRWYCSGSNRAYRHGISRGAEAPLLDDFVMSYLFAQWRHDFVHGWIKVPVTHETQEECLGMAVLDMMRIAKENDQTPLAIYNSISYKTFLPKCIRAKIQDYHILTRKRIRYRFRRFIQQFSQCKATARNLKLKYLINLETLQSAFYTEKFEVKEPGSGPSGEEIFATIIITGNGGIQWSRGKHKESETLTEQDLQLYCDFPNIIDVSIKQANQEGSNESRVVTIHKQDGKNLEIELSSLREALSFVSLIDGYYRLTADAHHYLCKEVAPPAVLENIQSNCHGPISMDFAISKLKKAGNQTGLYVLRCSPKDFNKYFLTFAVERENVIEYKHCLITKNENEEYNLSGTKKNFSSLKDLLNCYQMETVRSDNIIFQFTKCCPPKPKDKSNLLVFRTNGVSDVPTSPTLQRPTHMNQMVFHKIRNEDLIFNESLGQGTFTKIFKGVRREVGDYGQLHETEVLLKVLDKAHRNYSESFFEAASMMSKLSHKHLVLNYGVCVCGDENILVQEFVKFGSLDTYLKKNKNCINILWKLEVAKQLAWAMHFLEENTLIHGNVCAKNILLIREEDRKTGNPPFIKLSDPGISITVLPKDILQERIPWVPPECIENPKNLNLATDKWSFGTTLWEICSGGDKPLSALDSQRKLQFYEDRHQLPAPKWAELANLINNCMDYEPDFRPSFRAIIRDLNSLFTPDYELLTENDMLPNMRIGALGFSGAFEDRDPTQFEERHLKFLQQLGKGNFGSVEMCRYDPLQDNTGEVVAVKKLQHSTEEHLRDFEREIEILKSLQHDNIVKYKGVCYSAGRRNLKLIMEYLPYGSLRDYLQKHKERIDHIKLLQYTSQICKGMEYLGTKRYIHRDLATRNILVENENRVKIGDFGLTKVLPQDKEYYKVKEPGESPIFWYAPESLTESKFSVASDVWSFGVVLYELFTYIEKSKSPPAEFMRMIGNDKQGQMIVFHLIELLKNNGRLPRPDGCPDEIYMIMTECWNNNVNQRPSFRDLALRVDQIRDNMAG
# experiment: Recombinant Human JAK2 Kinase Assay (TRF)
# Assay type: biochemical
# run.parameters: JAK2 Kinase Inhibition; read-out: JAK2 Potency
Listed here: items and their measured IC50.

Example cases with answers are listed next.
c1ccc2c(c1)cc1cnc(Nc3ccc(N4CCOCC4)cc3)nn12 | < 100 nM
CS(=O)(=O)c1ccc(-c2ccc3cnc(Nc4cccc(N5CCN(CCO)CC5)c4)nn23)cc1 | < 100 nM
OCc1cccc(-c2ccc3cnc(Nc4cccc(N5CCOCC5)c4)nn23)c1 | < 100 nM
COc1cc(C2CCN(CC(N)=O)CC2)ccc1Nc1ncc2ccc(-c3ncccc3OC)n2n1 | 1000 to 10000 nM
COc1ccc(Cl)cc1-c1ccc2cnc(Nc3cccc(N4CCN(C[C@@H](C)O)CC4)c3)nn12 | < 100 nM

Asked: If you can, please state the reported IC50 value of COc1cc(N2CCC(N3CCOCC3)CC2)ccc1Nc1ncc2ccc(-c3ccccc3OC(F)(F)F)n2n1 .
Given back: < 100 nM

Asked: If you can, please state the reported IC50 value of Fc1cc(Nc2ncc3ccc(-c4cccc(Cl)c4)n3n2)ccc1N1CCOCC1 .
Given back: < 100 nM

Asked: If you can, please state the reported IC50 value of CN1CCN(C2CCN(c3ccc(Nc4ncc5ccc(-c6cccc(Cl)c6)n5n4)cc3)CC2)CC1 .
Given back: < 100 nM

----------
Listed here: items and their measured IC50.
# system.under.test: JAK2 (Homo sapiens, UniProt O60674)
# Construct: host or cells: baculovirus expression system
# experiment: Recombinant Human JAK2 Kinase Assay (TRF)
# Format: biochemical
# run.parameters: JAK2 kinase inhibition, 0.2 μM ATP; read-out: JAK2 Potency

COCCOc1ccccc1-c1ccc2cnc(Nc3ccc(C4CCN(CC(N)=O)CC4)cc3OC)nn12 [Example 1271] | 1000 to 10000 nM
COc1ccccc1-c1ccc2cnc(Nc3ccc(C4C(=O)N(C)CCN4C)cc3)nn12 (stereo not shown) [Example 1076] | < 100 nM
CN1CCN(c2ccc(Nc3ncc4ccc(-c5cccnc5F)n4n3)cc2)CC1 [Example 1041] | < 100 nM
COc1cc(C2CCN(C[C@H](O)C(F)(F)F)CC2)ccc1Nc1ncc2ccc(-c3ccccc3N(C)S(C)(=O)=O)n2n1 [Example 804] | 100 to 1000 nM
CC(=O)N1CCc2ccc(Nc3ncc4ccc(-c5cccc(NC(=O)C(C)(C)C)c5)n4n3)cc21 [Example 882] | < 100 nM
COc1cc([C@@H]2CCN(CCF)C[C@@H]2O)ccc1Nc1ncc2ccc(-c3ccccc3OC)n2n1 (racemic) [Example 838] | < 100 nM

Attention now shifts to the item below.
Asked: Write down the reported IC50 of COc1cc2c(cc1Nc1ncc3ccc(-c4cccc5c4OCC5)n3n1)CCN(CCO)CC2 [Example 704] , test system: JAK2 (Homo sapiens, UniProt O60674).
Given back: < 100 nM

----------
Listed here: items and their measured pIC50.
# system.under.test: ALK (Homo sapiens, UniProt Q9UM73)
# Construct: host or cells: baculovirus expression system
# Sequence (Q9UM73 19-1620): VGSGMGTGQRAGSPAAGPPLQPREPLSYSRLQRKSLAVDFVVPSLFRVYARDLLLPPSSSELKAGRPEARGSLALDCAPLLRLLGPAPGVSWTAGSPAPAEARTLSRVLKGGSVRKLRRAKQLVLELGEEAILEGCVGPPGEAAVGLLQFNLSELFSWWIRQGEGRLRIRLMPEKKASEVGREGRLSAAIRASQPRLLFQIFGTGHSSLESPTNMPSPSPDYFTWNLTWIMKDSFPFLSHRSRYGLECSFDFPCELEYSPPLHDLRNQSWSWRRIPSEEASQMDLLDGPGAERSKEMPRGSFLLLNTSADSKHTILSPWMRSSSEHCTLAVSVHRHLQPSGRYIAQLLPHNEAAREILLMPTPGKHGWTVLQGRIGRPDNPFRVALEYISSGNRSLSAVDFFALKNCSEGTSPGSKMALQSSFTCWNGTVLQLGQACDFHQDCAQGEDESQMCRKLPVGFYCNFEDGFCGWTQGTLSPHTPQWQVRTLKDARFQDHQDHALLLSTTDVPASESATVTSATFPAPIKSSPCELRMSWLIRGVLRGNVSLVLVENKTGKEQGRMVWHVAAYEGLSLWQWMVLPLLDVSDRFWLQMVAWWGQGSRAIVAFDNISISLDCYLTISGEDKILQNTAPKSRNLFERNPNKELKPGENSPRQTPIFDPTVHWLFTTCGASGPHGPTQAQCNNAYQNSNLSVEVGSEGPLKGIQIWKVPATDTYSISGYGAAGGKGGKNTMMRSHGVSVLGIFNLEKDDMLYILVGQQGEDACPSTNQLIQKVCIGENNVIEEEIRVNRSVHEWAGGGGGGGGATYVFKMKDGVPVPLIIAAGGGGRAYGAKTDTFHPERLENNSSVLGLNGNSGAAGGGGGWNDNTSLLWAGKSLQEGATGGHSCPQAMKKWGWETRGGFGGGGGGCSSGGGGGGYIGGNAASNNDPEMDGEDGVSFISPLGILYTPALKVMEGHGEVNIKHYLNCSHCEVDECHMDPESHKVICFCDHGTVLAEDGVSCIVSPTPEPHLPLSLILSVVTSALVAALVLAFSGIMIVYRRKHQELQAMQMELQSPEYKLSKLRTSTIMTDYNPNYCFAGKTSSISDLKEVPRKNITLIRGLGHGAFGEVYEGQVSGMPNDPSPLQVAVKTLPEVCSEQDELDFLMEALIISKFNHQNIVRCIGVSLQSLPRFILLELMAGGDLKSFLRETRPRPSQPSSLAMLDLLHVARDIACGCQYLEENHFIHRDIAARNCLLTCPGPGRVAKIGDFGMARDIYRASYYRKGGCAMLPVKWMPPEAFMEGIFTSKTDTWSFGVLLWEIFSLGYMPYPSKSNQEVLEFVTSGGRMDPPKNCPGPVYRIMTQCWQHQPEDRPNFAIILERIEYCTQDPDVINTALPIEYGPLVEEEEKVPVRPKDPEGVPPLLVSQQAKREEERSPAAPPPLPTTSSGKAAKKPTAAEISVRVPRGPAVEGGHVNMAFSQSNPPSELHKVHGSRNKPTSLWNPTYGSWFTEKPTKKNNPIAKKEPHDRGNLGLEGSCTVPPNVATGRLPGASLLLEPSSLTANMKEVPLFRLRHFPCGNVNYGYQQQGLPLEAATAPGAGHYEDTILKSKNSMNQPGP
# experiment: ALK Kinase Assay (ELISA/TRF, PLC-γ substrate)
# Format: biochemical
# run.parameters: ALK Kinase Inhibition; read-out: ALK Potency
pIC50: −log10 of the molar value.

CC1(C)CCC(=O)Nc2cc(Nc3ncc4ccc(-c5cccc(NS(C)(=O)=O)c5)n4n3)ccc21 | 6.00 to 7.00
COc1ccc(Cl)cc1-c1ccc2cnc(Nc3ccc4c(c3)CC(=O)N4C)nn12 | 6.00 to 7.00
COc1ccc(Cl)cc1-c1ccc2cnc(Nc3cccc(N4CCN(C[C@H](C)O)CC4)c3)nn12 | > 7.00

Asked: If you can, please state the reported pIC50 value of CS(=O)(=O)CCNC(=O)c1ccc(-c2ccc3cnc(Nc4ccc(N5CCOCC5)cc4)nn23)cc1 .
Given back: 5.00 to 6.00

Asked: If you can, please state the reported pIC50 value of COc1ccc(-c2ccc3cnc(Nc4ccc(C(=O)N5CCOCC5)cc4)nn23)cn1 .
Given back: < 5.00

Asked: If you can, please state the reported pIC50 value of Cc1cc(-c2ccc(S(C)(=O)=O)cc2)n2nc(Nc3ccc(N4CCOCC4)cc3)ncc12 .
Given back: 6.00 to 7.00

Asked: If you can, please state the reported pIC50 value of COc1ccc(-c2ccc3cnc(Nc4ccc(N5CCN(C)CC5)c(Cl)c4)nn23)cn1 .
Given back: 6.00 to 7.00

Asked: If you can, please state the reported pIC50 value of c1cncc(-c2ccc3cnc(Nc4ccc(N5CCOCC5)cc4)nn23)c1 .
Given back: 5.00 to 6.00
